target: mGluR4 (UniProt Q14833); test: mGluR4 potentiation assay: increase in response to an EC20 concentration of agonist (species not given); conditions: EC50 for potentiation of mGluR4; table does not state human or rat
assay_readout: EC50 (nM)

Cc1nn(C2CCOCC2)c2ccc(Nc3n[nH]c4cccnc34)cc12 = 1460
Cn1ncc2ncc(Nc3n[nH]c4cccnc34)cc21 = 1260
CCCn1nc(C)c2cc(Nc3n[nH]c4cccnc34)cnc21 = 150
COC(=O)Cn1nc(C)c2cc(Nc3n[nH]c4cccnc34)ccc21 = 867

P = Cn1nc(C(C)(C)O)c2ccc(Nc3n[nH]c4cccnc34)cc21
Q = Clc1cc(Nc2n[nH]c3cccnc23)cc2cnn(CC3CCC3)c12
Q: Between P and Q , whose recorded EC50 is greater? In your reply, give the label of the chosen option.
Result: P
(P: 865 nM, Q: 76 nM)

====

target: mGluR4 (UniProt Q14833); assay: mGluR4 potentiation assay: increase in response to an EC20 concentration of agonist (species not given); details: EC50 for potentiation of mGluR4; table does not state human or rat
assay_readout: EC50 (nM)

Example entries begin here.
Clc1nn(CC2CCC2)c2ccc(Nc3n[nH]c4cccnc34)cc12 [Example 285] = 1980
c1cnc2c(Nc3ccc4c(C5CC5)n[nH]c4c3)n[nH]c2c1 [Example 247] = 452
Cn1ncc2cc(Nc3n[nH]c4cccnc34)cnc21 [Example 151] = 582

a = CCn1nc(C)c2cc(Nc3n[nH]c4cccnc34)cnc21 [Example 258]
b = Cn1nc(NC(=O)C(F)(F)F)c2ccc(Nc3n[nH]c4cccnc34)cc21 [Example 25]
Q: So which one has the bigger EC50 here, a or b ? Label of pick, please.
Result: a

====

target: mGluR4 (UniProt Q14833); assay: mGluR4 potentiation assay: increase in response to an EC20 concentration of agonist (species not given); conditions: EC50 for potentiation of mGluR4; table does not state human or rat
pEC50: −log10 of the molar value.
assay_readout: pEC50

c1cnc2c(Nc3ccc4nn(CC5CCC5)cc4c3)n[nH]c2n1 [Example 87] = 6.13
Cn1nc(Cl)c2ccc(Nc3n[nH]c4cccnc34)cc21 [Example 31] = 6.77
Cn1nc(C(=O)NC2CC(F)(F)C2)c2ccc(Nc3n[nH]c4cccnc34)cc21 [Example 174] = 6.94

I = CCCn1nc(C)c2cc(Nc3n[nH]c4nccnc34)ccc21 [Example 131]
II = Cn1nc(C(=O)NCCS(C)(=O)=O)c2ccc(Nc3n[nH]c4cccnc34)cc21 [Example 159]
Q: # return whichever of I and II has the smaller pEC50 Your choice should be expressed through its label.
Result: II

====

target: mGluR4 (UniProt Q14833); experiment: mGluR4 potentiation assay: increase in response to an EC20 concentration of agonist (species not given); details: EC50 for potentiation of mGluR4; table does not state human or rat
assay_readout: EC50 (nM)

Use the examples below as a reference point.
CCCCCn1nc(C)c2cc(Nc3n[nH]c4nccnc34)ccc21 [Example 95] = 35
Cc1nn(CC(=O)O)c2ccc(Nc3n[nH]c4cccnc34)cc12 [Example 135] = 832
Cc1nn(CC2CC(C3CC3)=NO2)c2ccc(Nc3n[nH]c4cccnc34)cc12 (stereo not shown) [Example 100] = 258
CCC(C)n1nc(C)c2cc(Nc3n[nH]c4cccnc34)ccc21 (stereo not shown) [Example 102] = 367

a = Cn1nc(OCC(F)(F)F)c2ccc(Nc3n[nH]c4cccnc34)cc21 [Example 182]
b = FC1(F)CC(Cn2nc(Cl)c3cc(Nc4n[nH]c5cccnc45)ccc32)C1 [Example 287]
c = Cn1ncc2c(Cl)cc(Nc3n[nH]c4ncccc34)cc21 [Example 6]
d = Cn1nc(Oc2cccc(C#N)n2)c2ccc(Nc3n[nH]c4cccnc34)cc21 [Example 231]
Q: Returns the items ordered by EC50, from maximum to minimum. Would you mind listing the labels in the order requested?
Result: b, a, d, c

P = Cn1nc(OCC2CC2)c2ccc(Nc3n[nH]c4cccnc34)cc21 [Example 185]
Q = Cn1nc(C(=O)N2CCCC(F)C2)c2ccc(Nc3n[nH]c4cccnc34)cc21 (stereo not shown) [Example 163]
R = Cc1cc(Cn2nc3ccc(Nc4n[nH]c5cccnc45)cc3c2C)no1 [Example 70]
S = Cn1nc(C2CC2)c2ccc(Nc3n[nH]c4nccnc34)cc21 [Example 4]
Q: List items by EC50 in falling order. // list labels; follow requested order
Result: Q, R, P, S

I = Cn1cc2cc(Nc3n[nH]c4nccnc34)ccc2n1 [Example 83]
II = Cn1nc(C(=O)N2CC[C@@H](F)C2)c2ccc(Nc3n[nH]c4cccnc34)cc21 [Example 168]
III = [2H]C([2H])(C)n1nc(C)c2cc(Nc3n[nH]c4cccnc34)ccc21 [Example 124]
Q: Please list the entries, largest EC50 first. Sort and list the labels as requested.
Result: II, I, III
(II: 903 nM, I: 202 nM, III: 109 nM)

====

Molecular target: UniProt:Q14833
Assay: mGluR4 potentiation assay: increase in response to an EC20 concentration of agonist (species not given)
Details: EC50 for potentiation of mGluR4; table does not state human or rat
From the text: The disclosed compounds and compositions can be evaluated for their ability to act as a potentiator of metabotropic glutamate receptor activity, in particular mGluR4 activity, by any suitable known methodology known in the art. […] The cells were loaded with either a Ca2+-sensitive fluorescent dye or the thallium responsive dye and the plates were washed and placed into a suitable kinetic plate reader. […]
assay_readout: EC50 (nM)

Cn1nc(C(=O)N2CCS(=O)(=O)CC2)c2ccc(Nc3n[nH]c4cccnc34)cc21 = 801
Cn1nc(C2CC2)c2ccc(Nc3n[nH]c4ccc(F)cc34)cc21 = 1230
Cn1nc(C(=O)N2CCC(F)CC2)c2ccc(Nc3n[nH]c4cccnc34)cc21 = 1110

====

target: mGluR4 (UniProt Q14833); test: mGluR4 potentiation assay: increase in response to an EC20 concentration of agonist (species not given); details: EC50 for potentiation of mGluR4; table does not state human or rat
pEC50: −log10 of the molar value.
assay_readout: pEC50

Completed entries (count: 3):
Cn1nc(O)c2ccc(Nc3n[nH]c4cccnc34)cc21 = 5.50
COC(=O)CCCNc1nn(C)c2cc(Nc3n[nH]c4cccnc34)ccc12 = 6.58
Cn1nc(C(=O)N2CCCC(F)(F)C2)c2ccc(Nc3n[nH]c4cccnc34)cc21 = 6.05

I = Cc1nn(CC(F)(F)F)c2ncc(Nc3n[nH]c4cccnc34)cc12
II = Cn1cc2c(Cl)cc(Nc3n[nH]c4cccnc34)cc2n1
Q: // select label with min value of measured pEC50 from [ I , II ] Answer format: the label of the selected item.
Result: II

====

target: mGluR4 (UniProt Q14833); assay: mGluR4 potentiation assay: increase in response to an EC20 concentration of agonist (species not given); conditions: EC50 for potentiation of mGluR4; table does not state human or rat
assay_readout: EC50 (nM)

Use these answered entries as a reference point.
CC(C)n1ncc2cc(Nc3n[nH]c4cccnc34)cnc21 [Example 152] = 371
Cn1nc(OCc2cccnc2)c2ccc(Nc3n[nH]c4cccnc34)cc21 [Example 184] = 83

I = CCCCn1nc(C)c2cc(Nc3n[nH]c4cccnc34)ccc21 [Example 114]
II = Cn1ncc2cc(Nc3n[nH]c4cccnc34)cc(Cl)c21 [Example 63]
III = Cc1cc(Cn2ncc3cc(Nc4n[nH]c5cccnc45)ccc32)no1 [Example 103]
Q: Which order do these items take when sorted by rising EC50? List them. A complete answer lists every label in the requested sequence.
Result: I, II, III

P = [2H]C([2H])([2H])n1nc(C2CC2)c2ccc(Nc3n[nH]c4ncccc34)cc21 [Example 43]
Q = [2H]C([2H])([2H])n1ncc2cc(Nc3n[nH]c4cccnc34)ccc21 [Example 96]
Q: Pick one, P or Q : lowest reported EC50. Answer by stating the label of the chosen item.
Result: P

a = Cc1cc(Nc2n[nH]c3cccnc23)cc2c1cnn2C [Example 50]
b = Cn1nc(C(=O)N2CCCC2)c2ccc(Nc3n[nH]c4cccnc34)cc21 [Example 173]
c = c1cnc2c(Nc3ccc4[nH]ncc4c3)n[nH]c2c1 [Example 88]
d = O=C(O)Cn1nc(Cl)c2cc(Nc3n[nH]c4cccnc34)ccc21 [Example 278]
Q: Which order do these items take when sorted by rising EC50? List them. // respond by listing labels in the order requested
Result: c, a, b, d

a = Cc1noc(Cn2nc(C)c3cc(Nc4n[nH]c5cccnc45)ccc32)n1 [Example 126]
b = Cc1nn(C)c2ccc(Nc3n[nH]c4nccnc34)cc12 [Example 99]
Q: Compare the recorded EC50 of a and b ; state which is larger. Bench note: the answer is the label of the chosen record.
Result: b
